Molecular target: PDK1 kinase in PC3 cells (PKB phosphorylation at Thr 308) (Homo sapiens (Human), UniProt O15530)
Sequence (O15530 whole entry): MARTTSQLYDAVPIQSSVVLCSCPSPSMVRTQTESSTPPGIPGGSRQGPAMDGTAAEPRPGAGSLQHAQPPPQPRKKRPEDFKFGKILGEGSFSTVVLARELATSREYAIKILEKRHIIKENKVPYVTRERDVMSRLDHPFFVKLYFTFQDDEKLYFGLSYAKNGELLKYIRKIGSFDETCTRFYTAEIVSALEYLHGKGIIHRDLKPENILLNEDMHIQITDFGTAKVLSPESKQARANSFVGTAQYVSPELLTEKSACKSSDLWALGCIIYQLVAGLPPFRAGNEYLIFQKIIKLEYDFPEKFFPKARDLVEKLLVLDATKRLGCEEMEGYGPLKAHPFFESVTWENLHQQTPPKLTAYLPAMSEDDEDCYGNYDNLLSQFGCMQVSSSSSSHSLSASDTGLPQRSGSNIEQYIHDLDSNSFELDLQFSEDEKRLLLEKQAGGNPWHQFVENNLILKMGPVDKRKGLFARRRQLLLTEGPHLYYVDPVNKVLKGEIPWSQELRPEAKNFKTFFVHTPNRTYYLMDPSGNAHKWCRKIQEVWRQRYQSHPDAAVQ
Test: Cellular testing of PDK1 kinase inhibitors in PC3 cells (Luminex, phospho-T308-PKB)
Format: cell-based
Conditions: PKB phosphorylation at Thr 308 in PC3 cells; read-out: cellular IC50
Please respond with reported IC50 for every item in the list.
Kindly provide the numeric value in nM only, without the unit symbol.

Dear colleague, I am looking for the recorded IC50 of the following molecule: Cn1cc(-c2cnc3[nH]cc(-c4cc(N(CCO)c5ccccc5Cl)nc(N)n4)c3c2)cn1 2.6

Dear colleague, I am looking for the recorded IC50 of the following molecule: Cn1cc(-c2cnc3[nH]cc(-c4cc(N(CCO)c5ccccc5)nc(N)n4)c3c2)cn1 250

Item under review: CN(c1ccccc1)c1cc(-c2c[nH]c3ncc(-c4cnn(C)c4)cc23)nc(N)n1 . Reported IC50? 800

What IC50 value was documented for this molecule, Cn1cc(-c2cnc3[nH]cc(-c4cc(C5(c6ccccc6F)CC5)nc(N)n4)c3c2)cn1 ? 20

Field request: IC50 | item: COCCN(c1cc(-c2c[nH]c3ncc(-c4cnn(C)c4)cc23)nc(N)n1)c1ccccc1Cl 25.5

Which IC50 is listed for COC(=O)CN(c1ccc(Cl)cc1)c1cc(-c2c[nH]c3ncc(-c4cnn(C)c4)cc23)nc(N)n1 ? 470

Param item = CN(c1cc(-c2c[nH]c3ncc(-c4cnn(C)c4)cc23)nc(N)n1)c1ccccc1F ; retrieve measured IC50. 27

This collection of values is drawn from patent US8664236B2.
